So I've got a bunch of compounds here, and I need their remaining at 1 h, 100 µM values.
- ASSAY REMARKS: in vitro
- Assay type: in vitro ADME
- RUN PARAMETERS: human, plasma, pH 7.4, % Intact Peptide in Plasma after 1 h
Write the answer as a number in %, unit excluded.

Item under review: `CN[C@@H](CCCNC(=N)N)C(=O)N[C@@H](CCCNC(=N)N)C(=O)N1CCC[C@H]1C(=O)N[C@@H](Cc1ccc(O)cc1)C(=O)N[C@H](C(=O)N[C@@H](CC(C)C)C(=O)O)C1CCC1` . Reported remaining at 1 h, 100 µM?
91

Item under review: `CC[C@H](C)[C@H](NC(=O)[C@H](Cc1ccc(O)cc1)NC(=O)[C@@H]1CCCN1C(=O)[C@H](CCCNC(=N)N)NC(=O)[C@H](CCCNC(=N)N)NC)C(=O)N[C@@](C)(CC(C)C)C(=O)O` . Reported remaining at 1 h, 100 µM?
89

Item under review: `CC[C@@H](C)[C@H](NC(=O)[C@H](Cc1ccc(O)cc1)NC(=O)[C@@H]1CCCN1C(=O)[C@H](CCCNC(=N)N)NC(=O)[C@H](CCCNC(=N)N)NC)C(=O)N[C@@H](CC(C)C)C(=O)O` . Reported remaining at 1 h, 100 µM?
92
